- Measurement target: patient IgG (agAAB to the α1-AR)
- Test description: ELISA competition of patient IgG binding to the immobilized peptide by free α1-AR loop1 peptide
- Set-up: species or system human
- Experimental context: free peptide 0.3 nM up to 5 μM; patient IgG preincubated with free peptide 15 minutes; nonlinear regression; listed as α1-AR loop 1 peptide; read-out: EC50 value, competition of IgG binding to the immobilized peptide by soluble α1-AR loop 1 peptide
- From the text: Shown are data from representative experiments run in triplicates. Values are corrected for unspecific binding. A: Dependence of antibody binding on patient IgG protein. […] The binding of agonistic IgG preparations was characterized using standard ELISA techniques. […] The optical density was quantified at 450 nm using a SLT Spectra multiplate reader (TECAN).
Observed property: EC50

                           residue_sequence  measured_result
0  LGYWAFGRVFCN [loop1 peptide, synthetic peptide corresponding to extracellular loop1 of the human α1-AR]           ~30 nM
